- measuredTarget: HLA-A*11:01
- assayText: IEDB peptide-MHC binding, purified MHC/competitive/radioactivity; filed as Kd, often an IC50 or EC50 that approximates it; bounds were set here for any values at or beyond the usual limits of such assays
- conditionParameters: source organism: Vaccinia virus WR
Field 'label' (enum: MET / NOT MET). Set to MET when Kd is strictly under 70 nM; else NOT MET.

Consider the following illustrative entries.
>>> group("KSNILMWNK")
"MET"
>>> group("LIDLAFLIK")
"NOT MET"
>>> group("RFVKFNDYRK")
"NOT MET"

Please determine if "SVTKSSSWK" is below 70 nM in terms of Kd.
MET

Take the sequence "SSDSENNPEY" and say whether its Kd is less than 70 nM.
NOT MET

Input "LSTLNFNNLR" ; condition: Kd strictly below 70 nM. Does it hold?
NOT MET
